- Test system: E34 (patient-derived glioblastoma stem cells of proneural subtype)
- test: phenotypic distance (Euclidean, principal components) from DMSO controls (arbitrary units); higher = stronger morphological change
- protocol conditions: 4.11523 nM; exposure time: 72 h
Structures can show the parent of a compound that is named as a salt.
Rule: phenotypic distance under 0.6 gives 0, otherwise 1.

Before answering, review these 5 worked examples.
{"molecule": "COc1cc2nc(N3CCN(C(=O)c4ccco4)CC3)nc(N)c2cc1OC [Prazosin hydrochloride]", "assigned label": 0}
{"molecule": "Nc1ncn([C@@H]2O[C@H](CO)[C@@H](O)[C@H]2O)c(=O)n1", "assigned label": 0}
{"molecule": "OCCN1C[C@H](O)[C@@H](O)[C@H](O)[C@H]1CO", "assigned label": 1}
{"molecule": "O=[N+]([O-])c1ccc2c(c1)S(=O)(=O)C=C2", "assigned label": 1}
{"molecule": "CC(C)C[C@H](NC(=O)[C@H](Cc1ccccc1)NC(=O)c1cnccn1)B(O)O", "assigned label": 1}

(Q) Is the recorded value of phenotypic distance equal to or greater than 0.6 for this molecule? COC(=O)[C@@H]1[C@H]2C[C@H]3c4[nH]c5ccccc5c4CCN3C[C@@H]2CC[C@@H]1O [Yohimbine hydrochloride]
(A) 1

---

- System: E31 (patient-derived glioblastoma stem cells of proneural subtype)
- test: surviving fraction (nuclei count normalised to DMSO); higher = more cells surviving (less toxic)
- protocol conditions: 4.1 nM; exposure time: 72 h
Structures can show the parent of a compound that is named as a salt.
Listed compounds paired with reported surviving fraction

The examples below pair each entry with its known result.
{"compound": "Cc1c(-c2ccc(-c3ccccc3F)cc2)nc2ccc(F)cc2c1C(=O)O [Brequinar sodium salt hydrate]", "measured quantity": "surviving fraction", "result": 1.1}
{"compound": "CSc1ccc2c(c1)N(CCC1CCCCN1C)c1ccccc1S2 (stereo unspecified) [Thioridazine hydrochloride]", "measured quantity": "surviving fraction", "result": 0.911}

(Q) What surviving fraction value was documented for this compound, C[C@@H]1C[C@@H]([C@H](O)CC2CC(=O)NC(=O)C2)C(=O)[C@@H](C)C1 [Cycloheximide] ?
(A) 0.854

(Q) Field entry: COc1cccc2c1C(=O)c1c(O)c3c(c(O)c1C2=O)C[C@@](O)(C(=O)CO)C[C@@H]3O[C@H]1C[C@H](N)[C@H](O)[C@H](C)O1 [Doxorubicin hydrochloride]
(A) 0.425

(Q) Field entry: CCCCCCC[N+](CC)(CC)CCCCc1ccc(Cl)cc1 [Clofilium tosylate]
(A) 0.763

(Q) Field entry: CC[C@@H]1C(=O)N(C)c2cnc(Nc3ccc(C(=O)N[C@H]4CC[C@H](N5CCN(CC6CC6)CC5)CC4)cc3OC)nc2N1C(C)C
(A) 0.275

---

Listed compounds paired with reported surviving fraction
- Tested on: E31
- test: surviving fraction (nuclei count normalised to DMSO); higher = more cells surviving (less toxic)
- protocol conditions: 37 nM; exposure time: 72 h
Structures can show the parent of a compound that is named as a salt.

The examples below pair each entry with its known result.
{"compound": "C=C[C@H]1CN2CC[C@H]1C[C@@H]2[C@@H](O)c1ccnc2ccc(OC)cc12 [Quinidine hydrochloride monohydrate]", "surviving fraction": 0.941}
{"compound": "C[C@H]1Oc2cc(cnc2N)-c2c(nn(C)c2C#N)CN(C)C(=O)c2ccc(F)cc21", "surviving fraction": 1.06}
{"compound": "Nc1nc2n[nH]nc2c(=O)[nH]1", "surviving fraction": 1.07}

(Q) Param readout= surviving fraction; system= E31; entry= Nc1ncn(C2OC(CO)C(O)C2O)c(=O)n1 (configuration not stated) ; returns value.
(A) 0.96

(Q) Field entry: Cn1nnc2c(C(N)=O)ncn2c1=O [Temozolomide]
(A) 0.833

(Q) Field entry: CC[n+]1c(/C=C/C=C2/N(C)c3ccccc3C2(C)C)sc2ccccc21
(A) 0.714

(Q) Field entry: CN1C(=O)CC(c2ccccc2)C1=O (configuration not stated) [Phensuximide]
(A) 1.1

(Q) Field entry: CC(=O)[C@]1(O)Cc2c(O)c3c(c(O)c2[C@@H](O[C@H]2C[C@H](N)[C@H](O)[C@H](C)O2)C1)C(=O)c1ccccc1C3=O
(A) 0.179

(Q) Field entry: CCCSc1ccc2[nH]c(NC(=O)OC)nc2c1
(A) 0.874

(Q) Field entry: OC(c1cc(C(F)(F)F)nc2c(C(F)(F)F)cccc12)C1CCCCN1 (configuration not stated) [Mefloquine hydrochloride]
(A) 1.15

(Q) Field entry: CC(C)C[C@@H](C(=O)N[C@H](C(=O)OC1CCCC1)c1ccccc1)[C@H](O)C(=O)NO
(A) 0.7

(Q) Field entry: Cc1nc2ccccn2c(=O)c1CCN1CCC(C(=O)c2ccc(F)cc2)CC1
(A) 0.945

---

- System: E57 (patient-derived glioblastoma stem cells of mesenchymal subtype)
- test: surviving fraction (nuclei count normalised to DMSO); higher = more cells surviving (less toxic)
- protocol conditions: 3000 nM; exposure time: 72 h
Rule: surviving fraction under 0.9 gives Condition not met, otherwise Condition met.

(Q) Is the recorded value of surviving fraction equal to or greater than 0.9 for this molecule? Oc1ccc(OCc2ccccc2)cc1
(A) Condition not met

(Q) Field entry: OCCN1CCN(CCCN2c3ccccc3Sc3ccc(Cl)cc32)CC1
(A) Condition met

(Q) Field entry: COc1cccc2c1C(=O)c1c(O)c3c(c(O)c1C2=O)C[C@@](O)(C(=O)CO)C[C@@H]3O[C@H]1C[C@H](N)[C@H](O[C@@H]2CCCCO2)[C@H](C)O1
(A) Condition not met

(Q) Field entry: COc1cccc2c(NCc3ccccc3)nc(-n3c(N)nc4ccccc43)nc12
(A) Condition not met

---

- Tested on: E21 (patient-derived glioblastoma stem cells of mesenchymal subtype)
- test: phenotypic distance (Euclidean, principal components) from DMSO controls (arbitrary units); higher = stronger morphological change
- protocol conditions: 111.1 nM; exposure time: 72 h
Where a name gives a salt, the structure may show the parent alone.
measured quantity: phenotypic distance
Respond with the number and no other words.

The examples below pair each entry with its known result.
{"molecule": "C=CC(=O)Nc1cc(Nc2nccc(-c3cn(C)c4ccccc34)n2)c(OC)cc1N(C)CCN(C)C [Osimertinib mesylate]", "measured quantity": "phenotypic distance", "number": 0.922}
{"molecule": "CC(=O)OC[C@H]1O[C@@H]([S-])[C@H](OC(C)=O)[C@@H](OC(C)=O)[C@@H]1OC(C)=O.CCP(CC)CC.[Au+]", "measured quantity": "phenotypic distance", "number": 0.632}
{"molecule": "COc1cc2ncnc(Nc3cccc(Br)c3)c2cc1OC", "measured quantity": "phenotypic distance", "number": 3.3}
{"molecule": "CCCCCC[C@H]1C(=O)O[C@H](C)[C@H](NC(=O)c2cccc(NC=O)c2O)C(=O)O[C@@H](C)[C@@H]1OC(=O)CC(C)C [Antimycin A]", "measured quantity": "phenotypic distance", "number": 3.93}
{"molecule": "COc1nc(C)nc(Cl)c1NC1=NCCN1", "measured quantity": "phenotypic distance", "number": 1.03}
{"molecule": "Oc1c(Cl)cc(Cl)c(Cl)c1Cc1c(O)c(Cl)cc(Cl)c1Cl", "measured quantity": "phenotypic distance", "number": 0.988}
{"molecule": "C[C@H](Cc1cc2c(c(C(N)=O)c1)N(CCCO)CC2)NCCOc1ccccc1OCC(F)(F)F", "measured quantity": "phenotypic distance", "number": 0.791}

(Q) What phenotypic distance value was documented for this molecule, CN1C(=O)CC(c2ccccc2)C1=O (stereo not drawn) [Phensuximide] ?
(A) 0.519

---

- System: E34
- test: phenotypic distance (Euclidean, principal components) from DMSO controls (arbitrary units); higher = stronger morphological change
- protocol conditions: 111.1 nM; exposure time: 72 h
Counter-ions that a name gives are not always drawn.
measured quantity: phenotypic distance
Respond with the number and no other words.

The examples below pair each entry with its known result.
{"molecule": "Cc1ccc(/C=N/NC(=O)c2n[nH]c3c2CCCC3)cc1", "phenotypic distance": 1.69}
{"molecule": "CC1(C)S[C@@H]2[C@H](NC(=O)Cc3ccccc3)C(=O)N2[C@H]1C(=O)O [Benzylpenicillin sodium]", "phenotypic distance": 0.473}
{"molecule": "CC(NCCC(c1ccccc1)c1ccccc1)c1ccccc1 (stereo unspecified) [Fendiline hydrochloride]", "phenotypic distance": 0.878}
{"molecule": "CCC1=C[C@@H]2CN(C1)Cc1c([nH]c3ccccc13)[C@@](C(=O)OC)(c1cc3c(cc1OC)N(C)[C@H]1[C@@](O)(C(=O)OC)[C@H](OC(C)=O)[C@]4(CC)C=CCN5CC[C@]31[C@@H]54)C2 [Vinorelbine Tartrate]", "phenotypic distance": 1.01}
{"molecule": "CC(=O)CC(c1ccc([N+](=O)[O-])cc1)c1c(O)c2ccccc2oc1=O (stereo unspecified)", "phenotypic distance": 0.677}
{"molecule": "CC[C@@]1(O)C(=O)OCc2c1cc1n(c2=O)Cc2cc3cc(O)ccc3nc2-1 [Hydroxy Camptothecine]", "phenotypic distance": 2.93}
{"molecule": "CN1CCC(NC(=O)c2cc(-c3c(O)cc(O)cc3Oc3ccc([N+](=O)[O-])cc3)on2)CC1", "phenotypic distance": 1.12}
{"molecule": "CC(C)NCC(O)COc1cccc2ccccc12 (stereo unspecified) [Propranolol hydrochloride]", "phenotypic distance": 0.616}

(Q) What phenotypic distance value was documented for this molecule, CC(C)NCC(O)c1cc(O)cc(O)c1 (stereo unspecified) [Metaproterenol sulfate, orciprenaline sulfate] ?
(A) 0.805

(Q) Field entry: O=C(C1CC1)N1CC[C@@H](Cc2n[nH]c(=O)n2-c2ccc(-c3ccc4occc4c3)cc2)C1
(A) 2.59

(Q) Field entry: COC(=O)Nc1nc2cc(C(=O)c3ccccc3)ccc2[nH]1
(A) 2.23

(Q) Field entry: C[C@H]1Oc2cc(cnc2N)-c2c(nn(C)c2C#N)CN(C)C(=O)c2ccc(F)cc21
(A) 0.761

(Q) Field entry: CCCCCCNC(=O)n1cc(F)c(=O)[nH]c1=O
(A) 1.13

(Q) Field entry: CCCSc1ccc2[nH]c(NC(=O)OC)nc2c1
(A) 0.857

(Q) Field entry: C[C@@H](Oc1cc(-c2cnn(C3CCNCC3)c2)cnc1N)c1c(Cl)ccc(F)c1Cl
(A) 0.934

(Q) Field entry: CSc1ccc2c(c1)N(CCC1CCCCN1C)c1ccccc1S2 (stereo unspecified) [Thioridazine hydrochloride]
(A) 0.331
